- Test system: A498 (Kidney Carcinoma);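 note: after 72 h of two-drug dosing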
- Protocol: Bliss excess, mean over the matrix (fraction); higher = more synergy
Measurement Name: Bliss excess
# output: bare number, no unit

Reference set, count: 3
>  <Compound>
Cc1cc2ncnn2cc1Nc1ncc2c(n1)n(C1CCOCC1)c(=O)n2C [AZD7648] + O=C(c1cc(Cc2n[nH]c(=O)c3ccccc23)ccc1F)N1CCN(C(=O)C2CC2)CC1 [Olaparib] (first compound max 10 µM, 7x7, partner max 10 µM)

>  <Bliss excess>
-0.0268

$$$$
>  <Compound>
Cc1c2c(nn1C)CSCc1cc(n(C)n1)CSc1cc(c3ccccc3c1)OCCCc1c(C(=O)O)n(C)c3c-2c(Cl)ccc13 [AZD5991] + CCN(CCO)CCCOc1ccc2c(Nc3cc(CC(=O)Nc4cccc(F)c4)[nH]n3)ncnc2c1 [AZD2811] (first compound max 1 µM, 7x7, partner max 1 µM)

>  <Bliss excess>
0.0054

$$$$
>  <Compound>
COc1cccc(OCCCN)c1-c1cc(Nc2cnc(C#N)cn2)n[nH]1 [Prexasertib] + CN(C)CCCOc1ccc(-c2ccc3ncc4c(c3c2)n(C2CCOCC2)c(=O)n4C)cn1 [AZD0156] (first compound max 1 µM, 7x7, partner max 1 µM)

>  <Bliss excess>
0.034

$$$$

Attention now turns to another entry.
Exam item: Please report the recorded Bliss excess for CC1(C)CCC(CN2CCN(c3ccc(C(=O)NS(=O)(=O)c4ccc(NCC5CCOCC5)c([N+](=O)[O-])c4)c(Oc4cnc5[nH]ccc5c4)c3)CC2)=C(c2ccc(Cl)cc2)C1 [Venetoclax] + CN(C)CCCOc1ccc(-c2ccc3ncc4c(c3c2)n(C2CCOCC2)c(=O)n4C)cn1 [AZD0156] (first compound max 1 µM, 7x7, partner max 1 µM) .
Marked response: -0.029

----------
- Test system: LN-405 (Glioblastoma)
- Protocol: combination Emax (second highest fraction inhibited in the dose matrix, 72 h); higher = more inhibition; extreme values may be limits of the assay
Measurement Name: combination Emax
# output: bare number, no unit

Reference set, count: 2
>  <Molecule>
CC1(C)CCC(CN2CCN(c3ccc(C(=O)NS(=O)(=O)c4ccc(NCC5CCOCC5)c([N+](=O)[O-])c4)c(Oc4cnc5[nH]ccc5c4)c3)CC2)=C(c2ccc(Cl)cc2)C1 [Venetoclax] + C=CCn1c(=O)c2cnc(Nc3ccc(N4CCN(C)CC4)cc3)nc2n1-c1cccc(C(C)(C)O)n1 [AZD1775] (first compound max 1 µM, partner max 1 µM)

>  <Test System>
LN-405 (Glioblastoma)

>  <combination Emax>
0.326

$$$$
>  <Molecule>
CC(=O)c1c(C)c2cnc(Nc3ccc(N4CCNCC4)cn3)nc2n(C2CCCC2)c1=O [Palbociclib] + CC1(C)CCC(CN2CCN(c3ccc(C(=O)NS(=O)(=O)c4ccc(NCC5CCOCC5)c([N+](=O)[O-])c4)c(Oc4cnc5[nH]ccc5c4)c3)CC2)=C(c2ccc(Cl)cc2)C1 [Venetoclax] (first compound max 10 µM, 7x7, partner max 1 µM)

>  <Test System>
LN-405 (Glioblastoma)

>  <combination Emax>
0.17

$$$$

Attention now turns to another entry.
Exam item: Please report the recorded combination Emax for Cc1nc(Nc2ncc(C(=O)Nc3c(C)cccc3Cl)s2)cc(N2CCN(CCO)CC2)n1 [Dasatinib] + CC(=O)Nc1cccc(-n2c(=O)n(C3CC3)c(=O)c3c(Nc4ccc(I)cc4F)n(C)c(=O)c(C)c32)c1 [Trametinib] (first compound max 2 µM, 7x7, partner max 1 µM) .
Marked response: 0.468
